# test system: HIV-1 reverse transcriptase (HIV-1, UniProt P04585;P04585 P04585:588-1147,P04585:588-1027)
# protocol description: filter; nearly as high as full-length RT1
# measurement parameters: tags: overexpressed in E. coli, purified per Davies et al. 1991
endpoint: Kd (nM)
Give bare numbers, in nM.

Request: Item under review: ATCCGCCTGAATAGCGATACTCAGAAGGATAAACTGTCCAGAACTTGGA (ssDNA) [RT1t49] . Reported Kd?
Response: 4

Numbers sourced from patent US5503978.
